TEST_SYSTEM: recombinant guanylate cyclase reporter cell line (Rattus norvegicus, UniProt P19686+P20595)
Construct: expressed in transfected cells; host or cells: recombinant reporter cell line
Sequence (P19686 whole entry): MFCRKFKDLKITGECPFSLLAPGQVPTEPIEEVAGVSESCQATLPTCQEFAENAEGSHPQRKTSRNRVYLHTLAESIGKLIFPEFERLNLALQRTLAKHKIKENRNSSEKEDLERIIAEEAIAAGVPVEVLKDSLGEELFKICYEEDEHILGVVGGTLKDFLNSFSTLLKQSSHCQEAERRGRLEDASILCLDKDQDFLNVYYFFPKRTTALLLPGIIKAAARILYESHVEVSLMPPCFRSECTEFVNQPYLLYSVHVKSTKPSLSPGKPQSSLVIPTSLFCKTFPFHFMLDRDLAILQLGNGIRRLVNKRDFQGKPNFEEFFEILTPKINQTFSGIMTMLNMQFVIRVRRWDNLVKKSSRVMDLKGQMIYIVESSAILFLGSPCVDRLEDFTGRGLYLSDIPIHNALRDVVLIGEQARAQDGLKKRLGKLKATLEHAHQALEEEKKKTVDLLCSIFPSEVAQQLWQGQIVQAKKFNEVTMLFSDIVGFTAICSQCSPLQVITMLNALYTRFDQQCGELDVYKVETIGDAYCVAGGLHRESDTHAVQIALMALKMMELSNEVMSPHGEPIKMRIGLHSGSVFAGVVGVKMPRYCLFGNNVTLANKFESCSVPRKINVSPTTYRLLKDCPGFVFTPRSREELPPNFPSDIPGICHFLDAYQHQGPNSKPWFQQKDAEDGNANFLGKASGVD
Sequence (P20595 whole entry): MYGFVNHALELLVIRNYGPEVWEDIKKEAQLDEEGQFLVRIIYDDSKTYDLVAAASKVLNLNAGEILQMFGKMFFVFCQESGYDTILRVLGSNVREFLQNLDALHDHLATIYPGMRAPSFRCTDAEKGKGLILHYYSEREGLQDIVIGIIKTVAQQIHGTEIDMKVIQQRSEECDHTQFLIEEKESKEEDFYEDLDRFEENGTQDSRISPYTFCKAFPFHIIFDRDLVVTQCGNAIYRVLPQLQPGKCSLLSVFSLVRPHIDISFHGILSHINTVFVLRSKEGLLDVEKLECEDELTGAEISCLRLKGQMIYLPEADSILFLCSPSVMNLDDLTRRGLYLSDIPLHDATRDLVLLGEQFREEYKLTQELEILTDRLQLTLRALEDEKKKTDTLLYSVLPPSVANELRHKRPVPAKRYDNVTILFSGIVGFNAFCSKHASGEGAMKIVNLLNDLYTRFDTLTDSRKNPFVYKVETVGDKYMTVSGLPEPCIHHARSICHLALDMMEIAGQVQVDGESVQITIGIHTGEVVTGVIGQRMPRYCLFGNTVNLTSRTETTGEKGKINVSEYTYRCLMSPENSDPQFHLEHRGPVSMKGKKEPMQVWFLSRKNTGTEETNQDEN
PROTOCOL_NOTES: Action on recombinant guanylate cyclase reporter cell line
Format: cell-based
CONDITION_SUMMARY: in some cases mean values from individual determinations
Where a name gives a salt, the structure may show the parent alone.
REPORTED_METRIC: MEC (minimal effective concentration) (µM)

Reference set (5 entries):
COMPOUND: Cc1nc2c(OCc3c(F)cccc3F)cc(Cl)cn2c1C(=O)NCC(C)(N)CC(C)C (single isomer, unassigned) [Example 227]
REPORTED_METRIC: MEC (minimal effective concentration)
MEASUREMENT_UNIT: µM
REPORTED_MEASUREMENT: 0.30
//
COMPOUND: Cc1nc2c(OCc3c(F)cccc3F)cccn2c1C(=O)NC(CN)c1ccc(Cl)cc1 (racemic) [Example 14, dihydrochloride]
REPORTED_METRIC: MEC (minimal effective concentration)
MEASUREMENT_UNIT: µM
REPORTED_MEASUREMENT: 1.00
//
COMPOUND: Cc1nc2c(OCc3c(F)cccc3F)cccn2c1C(=O)NC(CN)c1ccc(F)c(F)c1 (single isomer, unassigned; enantiomer a) [Example 12]
REPORTED_METRIC: MEC (minimal effective concentration)
MEASUREMENT_UNIT: µM
REPORTED_MEASUREMENT: 1.00
//
COMPOUND: Cc1cc(OCc2c(F)cccc2F)c2nc(C)c(C(=O)NCC(C)(N)CO)n2c1 (single isomer, unassigned; enantiomer b) [Example 269]
REPORTED_METRIC: MEC (minimal effective concentration)
MEASUREMENT_UNIT: µM
REPORTED_MEASUREMENT: 0.65
//
COMPOUND: Cc1cc(OCc2c(F)cccc2F)c2nc(C)c(C(=O)NC3CC(N)C3)n2c1 (mixture of isomers)
REPORTED_METRIC: MEC (minimal effective concentration)
MEASUREMENT_UNIT: µM
REPORTED_MEASUREMENT: 1.00

P: CCCC(C)(N)CNC(=O)c1c(C)nc2c(OCc3c(F)cccc3F)cc(C(F)F)cn12 (single isomer, unassigned; enantiomer b) [Example 289]
Q: Cc1cc(OCc2c(F)cccc2F)c2nc(C)c(C(=O)NCC3(N)COC3)n2c1
R: COCC(N)CNC(=O)c1c(C)nc2c(OCc3c(F)cccc3F)cccn12 (single isomer, unassigned; enantiomer a) [Example 247]
S: Cc1nc2c(OCc3c(F)cccc3F)cccn2c1C(=O)NCCN1CCOCC1
T: Cc1cc(OCc2c(F)cccc2F)c2nc(C)c(C(=O)NCC(C)(N)Cc3ccccn3)n2c1 (racemic) [Example 297]
Descending sort on MEC (minimal effective concentration) required. Lab note: final answer is the ordered label list.
R, Q, S, P, T
(R: 3.00 µM, Q: 1.00 µM, S: 0.65 µM, P: 0.3 µM, T: 0.10 µM)

P: Cc1nc2c(OCc3c(F)cccc3F)cccn2c1C(=O)NCC(C)N1CCOCC1 (single isomer, unassigned; ent-8) [Example 181]
Q: Cc1nc2c(OCc3c(F)ccc(F)c3F)cccn2c1C(=O)NC(CN)c1ccc(F)c(F)c1 (centres unmarked)
Please state the entry with greater MEC (minimal effective concentration) among P and Q . Respond using the label that marks the chosen record.
P
(P: 1.00 µM, Q: 0.30 µM)

These data points were gathered from patent US20150274719A1.
